Origin of measurements: patent US7799343B2

System: tall fescue
experimental_protocol: Turf tolerance field study, tall fescue, Indiana 2004
Format: in vivo
assay_setup: Liquid formulation, 14 Days After Treatment, 0 = brown to dead turf, 10 = lush green, g ai/Ha: penoxsulam 35, imazaquin 104, bispyribac-sodium 75, trifloxysulfuron-sodium 9.2, metsulfuron-methyl 10.4
property_name: Color

> print(dat)
                                   compound  assay.system  value.reported
1  COc1cc(OC)nc(NC(=O)[N-]S(=O)(=O)c2ncccc2OCC(F)(F)F)n1.[Na+] [Trifloxysulfuron-sodium, trifloxysulfuron-sodium]   tall fescue  3.8 0-10 Scale

// for each compound in input: emit Color
1. CC(C)C1(C)N=C(c2nc3ccccc3cc2C(=O)O)NC1=O (centres unmarked)
2. COc1cc(OC)nc(Oc2cccc(Oc3nc(OC)cc(OC)n3)c2C(=O)O)n1 [Bispyribac-sodium, bispyribac-sodium]
3. COC(=O)c1ccccc1S(=O)(=O)NC(=O)Nc1nc(C)nc(OC)n1
4. COc1cnc(OC)n2nc(NS(=O)(=O)c3c(OCC(F)F)cccc3C(F)(F)F)nc12

1. 5.3 0-10 Scale
2. 8.8 0-10 Scale
3. 6.8 0-10 Scale
4. 7.8 0-10 Scale

* * *

Could you please report measured Injury for the items listed next?
Test system: perennial ryegrass
experimental_protocol: Turf tolerance field study, perennial ryegrass, Indiana 2004
Format: in vivo
assay_setup: Liquid formulation, 21 Days After Treatment, 0 = no visible injury, 10 = dead turf, g ai/Ha: penoxsulam 35, imazaquin 104, bispyribac-sodium 75, trifloxysulfuron-sodium 9.2, metsulfuron-methyl 10.4

Here is how some compounds turned out for Injury.
> print(dat)
                                   compound  value.reported
1  COc1cc(OC)nc(NC(=O)[N-]S(=O)(=O)c2ncccc2OCC(F)(F)F)n1.[Na+] [Trifloxysulfuron-sodium, trifloxysulfuron-sodium]  8.0 0-10 Scale
2  COc1cnc(OC)n2nc(NS(=O)(=O)c3c(OCC(F)F)cccc3C(F)(F)F)nc12  4.3 0-10 Scale
3  CC(C)C1(C)N=C(c2nc3ccccc3cc2C(=O)O)NC1=O (centres unmarked)  3.3 0-10 Scale
4  COc1cc(OC)nc(Oc2cccc(Oc3nc(OC)cc(OC)n3)c2C(=O)O)n1 [Bispyribac-sodium, bispyribac-sodium]  4.5 0-10 Scale

--- query ---
Please look up its Injury: "COC(=O)c1ccccc1S(=O)(=O)NC(=O)Nc1nc(C)nc(OC)n1"
6.0 0-10 Scale

* * *

Tested on: perennial ryegrass
experimental_protocol: Turf tolerance field study, perennial ryegrass, Indiana 2004
Format: in vivo
assay_setup: Granule formulation, 21 Days After Treatment, 0 = brown to dead turf, 10 = lush green, g ai/Ha: penoxsulam 35, imazaquin 104, bispyribac-sodium 75, trifloxysulfuron-sodium 9.2, metsulfuron-methyl 10.4
Could you please report measured Color for the items listed next?

Here is how some compounds turned out for Color.
> print(dat)
                                   compound        assay.system  property.name  value.reported
1  COc1cnc(OC)n2nc(NS(=O)(=O)c3c(OCC(F)F)cccc3C(F)(F)F)nc12 [Penoxsulam, penoxsulam]  perennial ryegrass          Color  8.3 0-10 Scale
2  COC(=O)c1ccccc1S(=O)(=O)NC(=O)Nc1nc(C)nc(OC)n1 [Metsulfuron-methyl, metsulfuron-methyl]  perennial ryegrass          Color  6.5 0-10 Scale
3  COc1cc(OC)nc(Oc2cccc(Oc3nc(OC)cc(OC)n3)c2C(=O)O)n1 [Bispyribac-sodium, bispyribac-sodium]  perennial ryegrass          Color  8.5 0-10 Scale
4  COc1cc(OC)nc(NC(=O)[N-]S(=O)(=O)c2ncccc2OCC(F)(F)F)n1.[Na+] [Trifloxysulfuron-sodium, trifloxysulfuron-sodium]  perennial ryegrass          Color  6.8 0-10 Scale

--- query ---
Param readout= Color; system= perennial ryegrass; entry= CC(C)C1(C)N=C(c2nc3ccccc3cc2C(=O)O)NC1=O (centres unmarked) [Imazaquin, imazaquin] ; returns value.
8.8 0-10 Scale

* * *

Test system: perennial ryegrass
experimental_protocol: Turf tolerance field study, perennial ryegrass, Indiana 2004
Assay type: in vivo
assay_setup: Granule formulation, 21 Days After Treatment, 0 = no visible injury, 10 = dead turf, g ai/Ha: penoxsulam 35, imazaquin 104, bispyribac-sodium 75, trifloxysulfuron-sodium 9.2, metsulfuron-methyl 10.4
property_name: Injury

Here is how some molecules turned out for Injury.
> print(dat)
                                   molecule        assay.system  property.name  value.reported
1  COc1cnc(OC)n2nc(NS(=O)(=O)c3c(OCC(F)F)cccc3C(F)(F)F)nc12  perennial ryegrass         Injury  1.5 0-10 Scale
2  COC(=O)c1ccccc1S(=O)(=O)NC(=O)Nc1nc(C)nc(OC)n1  perennial ryegrass         Injury  4.5 0-10 Scale
3  COc1cc(OC)nc(Oc2cccc(Oc3nc(OC)cc(OC)n3)c2C(=O)O)n1 [Bispyribac-sodium, bispyribac-sodium]  perennial ryegrass         Injury  1.0 0-10 Scale
4  CC(C)C1(C)N=C(c2nc3ccccc3cc2C(=O)O)NC1=O (centres unmarked)  perennial ryegrass         Injury  1.8 0-10 Scale

--- query ---
Please look up its Injury: COc1cc(OC)nc(NC(=O)[N-]S(=O)(=O)c2ncccc2OCC(F)(F)F)n1.[Na+] [Trifloxysulfuron-sodium, trifloxysulfuron-sodium]
5.3 0-10 Scale

* * *

System: tall fescue
experimental_protocol: Turf tolerance field study, tall fescue, Indiana 2004
Format: in vivo
assay_setup: Granule formulation, 14 Days After Treatment, 0 = no visible injury, 10 = dead turf, g ai/Ha: penoxsulam 35, imazaquin 104, bispyribac-sodium 75, trifloxysulfuron-sodium 9.2, metsulfuron-methyl 10.4
Procedure: Turf tolerance studies were conducted in monoculture stands of perennial ryegrass and tall fescue. Replicated trials, containing a minimum of three replications and having individual plots ranging in size from 25 to 50 ft. sq (2.3 to 4.6 square meters), were initiated in the late spring when turf was actively growing. […] Natural rainfall and supplemental irrigation, fertilizer, fungicides and insecticides were used to maintain healthy turf throughout the study period. […]
Could you please report measured Injury for the items listed next?

Here is how some compounds turned out for Injury.
> print(dat)
                                   compound  property.name  value.reported
1  COc1cc(OC)nc(Oc2cccc(Oc3nc(OC)cc(OC)n3)c2C(=O)O)n1 [Bispyribac-sodium, bispyribac-sodium]         Injury  0.0 0-10 Scale
2  COC(=O)c1ccccc1S(=O)(=O)NC(=O)Nc1nc(C)nc(OC)n1         Injury  0.8 0-10 Scale
3  CC(C)C1(C)N=C(c2nc3ccccc3cc2C(=O)O)NC1=O (centres unmarked)         Injury  0.5 0-10 Scale

// for each compound in input: emit Injury
1. COc1cc(OC)nc(NC(=O)[N-]S(=O)(=O)c2ncccc2OCC(F)(F)F)n1.[Na+] [Trifloxysulfuron-sodium, trifloxysulfuron-sodium]
2. COc1cnc(OC)n2nc(NS(=O)(=O)c3c(OCC(F)F)cccc3C(F)(F)F)nc12

1: 5.8 0-10 Scale; 2: 0.3 0-10 Scale

* * *

Test system: tall fescue
experimental_protocol: Turf tolerance field study, tall fescue, Indiana 2004
Assay type: in vivo
assay_setup: Liquid formulation, 14 Days After Treatment, 0 = no visible injury, 10 = dead turf, g ai/Ha: penoxsulam 35, imazaquin 104, bispyribac-sodium 75, trifloxysulfuron-sodium 9.2, metsulfuron-methyl 10.4
property_name: Injury

Here is how some molecules turned out for Injury.
> print(dat)
                                   molecule  assay.system  value.reported
1  COc1cnc(OC)n2nc(NS(=O)(=O)c3c(OCC(F)F)cccc3C(F)(F)F)nc12   tall fescue  3.0 0-10 Scale
2  CC(C)C1(C)N=C(c2nc3ccccc3cc2C(=O)O)NC1=O (centres unmarked)   tall fescue  5.3 0-10 Scale
3  COC(=O)c1ccccc1S(=O)(=O)NC(=O)Nc1nc(C)nc(OC)n1   tall fescue  4.3 0-10 Scale
4  COc1cc(OC)nc(Oc2cccc(Oc3nc(OC)cc(OC)n3)c2C(=O)O)n1 [Bispyribac-sodium, bispyribac-sodium]   tall fescue  2.0 0-10 Scale

Please look up its Injury: COc1cc(OC)nc(NC(=O)[N-]S(=O)(=O)c2ncccc2OCC(F)(F)F)n1.[Na+] [Trifloxysulfuron-sodium, trifloxysulfuron-sodium]
8.0 0-10 Scale

* * *

Test system: dandelion, Taraxacum officinale (TAROF)
experimental_protocol: Postemergent weed control field study, Pennsylvania 2004, TAROF
Format: in vivo
assay_setup: Liquid formulation; 29 Days After Application; g ai/Ha: penoxsulam 35, imazaquin 104, bispyribac-sodium 75, trifloxysulfuron-sodium 9.2, metsulfuron-methyl 10.4
property_name: Percent Weed Control TAROF 29DAA (%)
One number for each entry, in %.

Here is how some molecules turned out for Percent Weed Control TAROF 29DAA.
> print(dat)
                                   molecule                             assay.system  value.reported
1  COc1cc(OC)nc(NC(=O)[N-]S(=O)(=O)c2ncccc2OCC(F)(F)F)n1.[Na+] [Trifloxysulfuron-sodium, trifloxysulfuron-sodium]  dandelion, Taraxacum officinale (TAROF)            98.3
2  COc1cc(OC)nc(Oc2cccc(Oc3nc(OC)cc(OC)n3)c2C(=O)O)n1 [Bispyribac-sodium, bispyribac-sodium]  dandelion, Taraxacum officinale (TAROF)            95.7
3  COc1cnc(OC)n2nc(NS(=O)(=O)c3c(OCC(F)F)cccc3C(F)(F)F)nc12  dandelion, Taraxacum officinale (TAROF)            44.4

// for each molecule in input: emit Percent Weed Control TAROF 29DAA
1. COC(=O)c1ccccc1S(=O)(=O)NC(=O)Nc1nc(C)nc(OC)n1
2. CC(C)C1(C)N=C(c2nc3ccccc3cc2C(=O)O)NC1=O (centres unmarked)

99.1
58.9
